Consider the following compounds and their measured MIC readings.
System: Mycobacterium tuberculosis
METHOD_SUMMARY: Antitubercular activity against Mycobacterium tuberculosis H37Rv assessed as inhibition of bacterial growth measured after 8 days by Alamar blue assay
Assay type: functional
TEST_CONDITIONS: 192 h, time 8 day
Expressed in µM, but write only the number.

{"COMPOUND": "Fc1ccc2c(c1)nc(-c1ccc(Cl)cc1)c1[nH]ccc12", "EXPERIMENTAL_ENDPOINT": "MIC", "RECORDED_MEASUREMENT": 4.2}
{"COMPOUND": "CCCCCCCCc1nc2cc(F)ccc2c2cc[nH]c12", "EXPERIMENTAL_ENDPOINT": "MIC", "RECORDED_MEASUREMENT": 16.8}
{"COMPOUND": "CCCCCCCCc1nc2cc(C)ccc2c2cc[nH]c12", "EXPERIMENTAL_ENDPOINT": "MIC", "RECORDED_MEASUREMENT": 17}
{"COMPOUND": "CCCCCCCCc1nc2ccccc2c2cc[nH]c12", "EXPERIMENTAL_ENDPOINT": "MIC", "RECORDED_MEASUREMENT": 17.8}
{"COMPOUND": "Clc1ccc(-c2nc3ccccc3c3c(Br)c[nH]c23)cc1", "EXPERIMENTAL_ENDPOINT": "MIC", "RECORDED_MEASUREMENT": 14}
{"COMPOUND": "Cc1ccc2c(c1)nc(-c1ccc(Cl)cc1)c1c2ccn1C", "EXPERIMENTAL_ENDPOINT": "MIC", "RECORDED_MEASUREMENT": 16.3}
{"COMPOUND": "COc1c(N2C[C@@H]3CCCN[C@@H]3C2)c(F)cc2c(=O)c(C(=O)O)cn(C3CC3)c12 [MOXIFLOXACIN]", "EXPERIMENTAL_ENDPOINT": "MIC", "RECORDED_MEASUREMENT": 0.15}
{"COMPOUND": "COc1ccc2c(c1)nc(CCc1ccccc1)c1c2ccn1C", "EXPERIMENTAL_ENDPOINT": "MIC", "RECORDED_MEASUREMENT": 7.9}

Return reported MIC; argument: c1ccc2c(c1)nc(C1CC1)c1[nH]ccc12 24

Query c1ccc(-c2ccc(-c3nc4ccccc4c4cc[nH]c34)cc2)cc1 next 31.2

Then what about the compound Clc1ccc(-c2nc3ccccc3c3cc[nH]c23)cc1 ? 17.9

---

inhibition at 48 h, 10 µM: recorded values
METHOD_SUMMARY: Cytotoxicity against human HepG2 cells assessed as inhibition of cell growth at 10 uM measured after 48 hrs by MTT assay relative to control
Assay type: toxicity, cell-based
Just the number please, in %, no unit attached.

Which value of inhibition at 48 h, 10 µM has been reported for COc1ccc2c(c1)nc(CCc1ccccc1)c1[nH]ccc12 in the records? 3

What would you report for Fc1ccc2c(c1)nc(-c1ccc(Cl)cc1)c1[nH]ccc12 ? 1

---

Tested on: Mycobacterium tuberculosis
METHOD_SUMMARY: Antitubercular activity against Mycobacterium tuberculosis H37Rv assessed as inhibition of bacterial growth measured after 8 days by Alamar blue assay
Type: functional
TEST_CONDITIONS: 192 h, time 8 day
EXPERIMENTAL_ENDPOINT: MIC (µM)
API: value field is a number in µM; no unit string.

{"SMILES_REPR": "COc1ccc2c(c1)nc(Cc1ccccc1)c1[nH]ccc12", "SYSTEM_NAME": "Mycobacterium tuberculosis", "MIC (µM)": 34.7}

In the following, a different molecule is considered.
Suppose we examine the molecule CCCCCCCCc1nc2cc(OC)ccc2c2cc[nH]c12 ; what MIC value has been reported? 16.1
